Experiment: Unbound clearance in Sprague-Dawley rat
Type: ADME
Details: in vivo
QUANTITY: CL free (mL/min/kg)

Prompt: Query (compound): "CCOc1cnc(N2C[C@@]3(CCC[C@](C)(Cn4cnc5ccc(C#N)cc54)C3)OC2=O)cn1" ; field requested: CL free
Response: 460

Prompt: Query (compound): "COc1cnc(N2C[C@@]3(CCC[C@](C)(Cn4cnc5ccc(C#N)cc54)C3)OC2=O)cn1" ; field requested: CL free
Response: 400

Prompt: Query (compound): "C[C@]1(Cn2cnc3ccc(C#N)cc32)CCC[C@@]2(CN(c3cnc(C4CC4)cn3)C(=O)O2)C1" ; field requested: CL free
Response: 340

Prompt: Query (compound): "CC(C)(C)CN1C[C@@]2(CCC[C@](C)(Cn3cnc4ccc(C#N)cc43)C2)OC1=O" ; field requested: CL free
Response: 450

[A] N#Cc1ccc2ncn(C[C@H]3CCC[C@]4(C3)CN(c3ccc(F)cc3)C(=O)O4)c2c1 (racemic)
[B] COc1ccccc1N1C[C@@]2(CCC[C@](C)(Cn3cnc4ccc(C#N)cc43)C2)OC1=O
[C] CC(C)(O)c1cnc(N2C[C@@]3(CCC[C@](C)(Cn4cnc5ccc(C#N)cc54)C3)OC2=O)cn1
[D] CC(C)(C)CN1C[C@@]2(CCC[C@H](Cn3cnc4ccc(C#N)cc43)C2)OC1=O
Prompt: Ordering criterion: CL free; begin with the maximum. Please list each label once, in the requested order.
Response: B, A, D, C

---

Assay: Clearance in Sprague-Dawley rat at 1 mg/kg, iv measured after 24 hrs by HPLC-MS/MS analysis
Assay type: ADME, organism-based
Settings: in vivo
QUANTITY: clearance (mL/min/kg)

Worked set:
Prompt: Query (molecule): "CCOc1ccc(N2C[C@@]3(CCC[C@](C)(Cn4cnc5ccc(C#N)cc54)C3)OC2=O)nn1" ; field requested: clearance
Response: 14

Prompt: Query (molecule): "C[C@]1(Cn2cnc3ccc(C#N)cc32)CCC[C@@]2(CN(c3ccc(F)cc3)C(=O)O2)C1" ; field requested: clearance
Response: 39

Prompt: Query (molecule): "CCOc1ccc(N2C[C@@]3(CCC[C@](C)(Cn4cnc5ccc(C#N)cc54)C3)OC2=O)cn1" ; field requested: clearance
Response: 24

Prompt: Query (molecule): "CC(C)(C)CN1C[C@@]2(CCC[C@H](Cn3cnc4ccc(C#N)cc43)C2)OC1=O" ; field requested: clearance
Response: 64

Prompt: Query (molecule): CC(C)(C)CN1C[C@@]2(CCC[C@H](C(C)(C)n3cnc4ccc(C#N)cc43)C2)OC1=O (racemic) ; field requested: clearance
Response: 70

Prompt: Query (molecule): "CCOc1ccc(N2C[C@@]3(CCC[C@](C)(Cn4cnc5ccc(C#N)cc54)C3)OC2=O)cc1" ; field requested: clearance
Response: 140

[a] CC(C)(C)N1C[C@@]2(CCC[C@H](Cn3cnc4ccc(C#N)cc43)C2)OC1=O (racemic)
[b] COc1ccccc1N1C[C@@]2(CCC[C@](C)(Cn3cnc4ccc(C#N)cc43)C2)OC1=O
Prompt: Looking only at measured clearance, which entry is lower, a or b ? Select an item and report its label.
Response: b

---

Assay: Unbound fraction in Sprague-Dawley rat plasma
Assay type: ADME, cell-free
QUANTITY: fraction unbound

Prompt: Query (compound): N#Cc1ccc2ncn(C[C@H]3CCC[C@]4(C3)CN(c3ccc(F)cc3)C(=O)O4)c2c1 (racemic) ; field requested: fraction unbound
Response: 0.065

Prompt: Query (compound): "CCOc1cnc(N2C[C@@]3(CCC[C@](C)(Cn4cnc5ccc(C#N)cc54)C3)OC2=O)cn1" ; field requested: fraction unbound
Response: 0.037

Prompt: Query (compound): "CCOc1ccc(N2C[C@@]3(CCC[C@](C)(Cn4cnc5ccc(C#N)cc54)C3)OC2=O)cn1" ; field requested: fraction unbound
Response: 0.031

[A] CC(C)(C)CN1C[C@@]2(CCC[C@H](Cn3cnc4ccc(C#N)cc43)C2)OC1=O
[B] CC(C)(O)c1cnc(N2C[C@@]3(CCC[C@](C)(Cn4cnc5ccc(C#N)cc54)C3)OC2=O)cn1 [GSK2798745]
[C] COc1ccccc1N1C[C@@]2(CCC[C@](C)(Cn3cnc4ccc(C#N)cc43)C2)OC1=O
[D] CC(C)(C)CN1C[C@@]2(CCC[C@](C)(Cn3cnc4ccc(C#N)cc43)C2)OC1=O
Prompt: Order by fraction unbound, ascending. Please list each label once, in the requested order.
Response: C, B, D, A
